# studyTarget: human integrin αvβ5 (Homo sapiens, UniProt P06756+P18084)
# Sequence (P06756 31-889 limits assumed): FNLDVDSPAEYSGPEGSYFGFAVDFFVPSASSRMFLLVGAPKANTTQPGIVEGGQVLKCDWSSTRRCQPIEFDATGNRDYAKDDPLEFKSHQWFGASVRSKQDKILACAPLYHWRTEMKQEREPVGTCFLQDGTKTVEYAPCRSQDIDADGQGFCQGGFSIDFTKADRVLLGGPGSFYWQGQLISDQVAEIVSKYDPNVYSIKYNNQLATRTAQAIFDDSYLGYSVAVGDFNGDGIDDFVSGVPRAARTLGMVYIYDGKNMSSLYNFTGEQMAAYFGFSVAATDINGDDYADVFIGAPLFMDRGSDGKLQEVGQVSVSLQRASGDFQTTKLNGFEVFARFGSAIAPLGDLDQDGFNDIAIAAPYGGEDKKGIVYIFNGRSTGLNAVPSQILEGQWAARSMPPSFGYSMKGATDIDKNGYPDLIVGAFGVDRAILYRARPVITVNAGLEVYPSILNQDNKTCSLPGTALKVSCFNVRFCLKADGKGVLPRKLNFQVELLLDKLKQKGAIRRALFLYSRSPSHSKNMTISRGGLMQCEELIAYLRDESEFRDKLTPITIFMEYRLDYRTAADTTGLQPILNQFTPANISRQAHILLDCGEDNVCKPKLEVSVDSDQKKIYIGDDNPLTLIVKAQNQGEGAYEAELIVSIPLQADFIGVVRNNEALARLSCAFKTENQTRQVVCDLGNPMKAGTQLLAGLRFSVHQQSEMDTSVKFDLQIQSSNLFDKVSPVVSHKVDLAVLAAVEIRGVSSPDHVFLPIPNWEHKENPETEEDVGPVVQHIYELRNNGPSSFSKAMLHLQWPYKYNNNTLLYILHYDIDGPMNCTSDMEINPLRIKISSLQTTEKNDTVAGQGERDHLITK
# Sequence (P06756 891-1048 partner limits assumed): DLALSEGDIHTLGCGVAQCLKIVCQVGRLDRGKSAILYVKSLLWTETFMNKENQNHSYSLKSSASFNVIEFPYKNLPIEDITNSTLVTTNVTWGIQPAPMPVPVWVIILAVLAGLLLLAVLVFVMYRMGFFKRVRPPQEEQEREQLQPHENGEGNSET
# Sequence (P18084 24-799): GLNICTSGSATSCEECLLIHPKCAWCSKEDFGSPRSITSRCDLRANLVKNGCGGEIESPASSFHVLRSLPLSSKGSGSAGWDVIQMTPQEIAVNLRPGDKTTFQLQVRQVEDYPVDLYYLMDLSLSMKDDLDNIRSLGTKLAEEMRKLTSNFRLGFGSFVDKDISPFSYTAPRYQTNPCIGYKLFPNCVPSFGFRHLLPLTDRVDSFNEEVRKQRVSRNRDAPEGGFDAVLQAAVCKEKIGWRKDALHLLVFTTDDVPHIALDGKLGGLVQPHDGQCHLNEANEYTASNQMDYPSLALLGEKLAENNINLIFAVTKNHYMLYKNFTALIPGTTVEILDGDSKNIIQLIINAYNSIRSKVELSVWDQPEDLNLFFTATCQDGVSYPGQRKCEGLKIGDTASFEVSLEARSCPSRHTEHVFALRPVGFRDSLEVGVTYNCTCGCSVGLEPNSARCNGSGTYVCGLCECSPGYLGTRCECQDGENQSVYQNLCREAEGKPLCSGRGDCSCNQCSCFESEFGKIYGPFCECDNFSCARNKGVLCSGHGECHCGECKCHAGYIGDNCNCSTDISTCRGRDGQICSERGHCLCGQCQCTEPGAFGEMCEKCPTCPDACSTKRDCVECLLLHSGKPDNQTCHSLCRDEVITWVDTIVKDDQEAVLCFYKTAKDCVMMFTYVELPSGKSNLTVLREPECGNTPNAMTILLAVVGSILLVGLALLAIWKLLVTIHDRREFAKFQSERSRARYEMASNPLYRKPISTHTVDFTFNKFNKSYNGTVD
# experimentNotes: Evaluation of integrin binding property (surface plasmon resonance, Biacore 3000, immobilized cyclic peptide)
# runParameters: peptide immobilized on CM5 sensor chip; human integrin αvβ5 30-1,000 nM, 25° C., HEPES buffer with 5 mM magnesium chloride; read-out: Integrin binding property (dissociation constant)
pKd: −log10 of the molar value. Numbered stars: 1 amine (or outer) side, 2 acyl side, 3 side chain; on linkers, the order of the positions; unused ones are H or OH. Bridge positions count the residues as written; N and C are the ends. Square brackets hold non-standard residues; d marks the D form. Peptide text beside a SMILES is read from it. hCys = N[C@@H](CCS)C(=O)O; Orn = NCCC[C@H](N)C(=O)O; Dap = NC[C@H](N)C(=O)O; X1 = O=C(C[*:1])[*:2]; X2 = O=C(C[*:2])[*:1]

compound: CC[C@H](C)[C@@H]1NC(=O)CSCC[C@@H](C(=O)N[C@@H](CCCCN)C(=O)N[C@@H](CCCCN)C(=O)N[C@@H](CCCCN)C(=O)O)NC(=O)[C@H](Cc2ccccc2)NC(=O)[C@@H]2CCSCC(=O)NC[C@H](NC1=O)C(=O)N[C@@H](CCCNC(=N)N)C(=O)NCC(=O)N[C@@H](CC(=O)O)C(=O)N2 [Cyclic peptide 1] ({CH2CO}-I[Dap]RGD[hCys]F[hCys]KKK-OH; linker 2-6 via X2; thioether N-8)
pKd: 7.00 to 7.30
//
compound: CC[C@H](C)[C@@H]1NC(=O)CSCC[C@@H](C(=O)N[C@@H](CCCCN)C(=O)N[C@@H](CCCCN)C(=O)N[C@@H](CCCCN)C(=O)O)NC(=O)[C@H](Cc2ccccc2)NC(=O)[C@@H]2CCSCC(=O)NCCCC[C@H](NC1=O)C(=O)N[C@@H](CCCNC(=N)N)C(=O)NCC(=O)N[C@@H](CC(=O)O)C(=O)N2 [Cyclic peptide 4] ({CH2CO}-IKRGD[hCys]F[hCys]KKK-OH; linker 2-6 via X2; thioether N-8)
pKd: 7.00 to 7.30
//
compound: C[C@H](NC(=O)[C@@H]1CCSCC(=O)N[C@@H](CCC(=O)O)C(=O)N[C@H]2CCSCC(=O)NCCC[C@H](NC(=O)[C@H](CC(=O)O)NC(=O)CNC(=O)[C@H](CCCNC(=N)N)NC2=O)C(=O)N[C@@H](Cc2ccccc2)C(=O)N1)C(=O)N[C@@H](CCCCN)C(=O)N[C@@H](CCCCN)C(=O)N[C@@H](CCCCN)C(=O)O [Cyclic peptide 47] ({CH2CO}-E[hCys]RGD[Orn]F[hCys]AKKK-OH; linker 2-6 via X1; thioether N-8)
pKd: > 7.30
//
compound: CC[C@H](C)[C@@H]1NC(=O)CSC[C@@H](C(=O)N[C@@H](CCCCN)C(=O)N[C@@H](CCCCN)C(=O)N[C@@H](CCCCN)C(=O)O)NC(=O)[C@H](Cc2ccccc2)NC(=O)[C@@H]2CCSCC(=O)NCCC[C@H](NC1=O)C(=O)N[C@@H](CCCNC(=N)N)C(=O)NCC(=O)N[C@@H](CC(=O)O)C(=O)N2 [Cyclic peptide 15] ({CH2CO}-I[Orn]RGD[hCys]FCKKK-OH; linker 2-6 via X2; thioether N-8)
pKd: > 7.30
//
compound: N=C(N)NCCC[C@@H]1NC(=O)[C@@H]2CCSCC(=O)NCCC[C@H](NC(=O)[C@H](CC(=O)O)NC(=O)CNC1=O)C(=O)N[C@@H](Cc1ccccc1)C(=O)N[C@H](C(=O)N[C@@H](CCCCN)C(=O)N[C@@H](CCCCN)C(=O)N[C@@H](CCCCN)C(=O)O)CCSCC(=O)N[C@@H](CCC(=O)O)C(=O)N2 [Cyclic peptide 43] ({CH2CO}-E[hCys]RGD[Orn]F[hCys]KKK-OH; linker 2-6 via X1; thioether N-8)
pKd: > 7.30
//
compound: CC[C@H](C)[C@@H]1NC(=O)CSC[C@@H](C(=O)N[C@@H](CCCCN)C(=O)N[C@@H](CCCCN)C(=O)N[C@@H](CCCCN)C(=O)O)NC(=O)[C@H](Cc2ccccc2)NC(=O)[C@@H]2CCCCNC(=O)CSCC[C@H](NC1=O)C(=O)N[C@@H](CCCNC(=N)N)C(=O)NCC(=O)N[C@@H](CC(=O)O)C(=O)N2 [Cyclic peptide 17] ({CH2CO}-I[hCys]RGDKFCKKK-OH; linker 2-6 via X1; thioether N-8)
pKd: > 7.30
//
compound: CC[C@H](C)[C@@H]1NC(=O)CSCC[C@@H](C(=O)N[C@@H](CCCCN)C(=O)N[C@@H](CCCCN)C(=O)N[C@@H](CCCCN)C(=O)O)NC(=O)[C@H](CCCNC(=N)N)NC(=O)[C@H](Cc2ccccc2)NC(=O)[C@@H]2CCCCNC(=O)CSCC[C@H](NC1=O)C(=O)N[C@@H](CCCNC(=N)N)C(=O)NCC(=O)N[C@@H](CC(=O)O)C(=O)N2 [Cyclic peptide 33] ({CH2CO}-I[hCys]RGDKFR[hCys]KKK-OH; linker 2-6 via X1; thioether N-9)
pKd: 6.70 to 7.00
//
compound: CC[C@H](C)[C@@H]1NC(=O)CSCC[C@@H](C(=O)N[C@@H](CCCCN)C(=O)N[C@@H](CCCCN)C(=O)N[C@@H](CCCCN)C(=O)O)NC(=O)[C@H](C)NC(=O)[C@H](Cc2ccccc2)NC(=O)[C@@H]2CCCCNC(=O)CSCC[C@H](NC1=O)C(=O)N[C@@H](CCCNC(=N)N)C(=O)NCC(=O)N[C@@H](CC(=O)O)C(=O)N2 [Cyclic peptide 34] ({CH2CO}-I[hCys]RGDKFA[hCys]KKK-OH; linker 2-6 via X1; thioether N-9)
pKd: 7.00 to 7.30
//
compound: C[C@H](N)C(=O)N[C@H]1CCSCC(=O)NCCCC[C@@H](C(=O)N[C@@H](CCCCN)C(=O)N[C@@H](CCCCN)C(=O)N[C@@H](CCCCN)C(=O)O)NC(=O)[C@H](Cc2ccccc2)NC(=O)[C@@H]2CCCCNC(=O)CSCC[C@H](NC1=O)C(=O)N[C@@H](CCCNC(=N)N)C(=O)NCC(=O)N[C@@H](CC(=O)O)C(=O)N2 [Cyclic peptide 36] (H-A[hCys][hCys]RGDKFKKKK-OH; linker 2-9, 3-7 via X1)
pKd: 7.00 to 7.30
